Measured cAMP release, % activity with respect to control, at 1 µM, listed per entry for reference.
Target: human GLP-1 receptor (human, UniProt P43220 24-463)
Assay: cell-based or functional assay
Where no end group is shown, it is not given here. [ ]: non-standard residue; d: D form. Bip(2'-Et-4'-OMe) = CCc1cc(OC)ccc1-c1ccc(C[C@H](N)C(=O)O)cc1; αMePhe(2,6-F2) = C[C@](N)(Cc1c(F)cccc1F)C(=O)O; αMePhe(2-F) = C[C@](N)(Cc1ccccc1F)C(=O)O; αMeBip(OMe) = alpha-methylated Bip(OMe); hhPhe = N[C@@H](CCCc1ccccc1)C(=O)O; αMeD = C[C@](N)(CC(=O)O)C(=O)O; αMeAPPA = not defined here; Ac3c = NC1(C(=O)O)CC1; Aib = CC(C)(N)C(=O)O
VALUE_TYPE: cAMP release, % activity with respect to control, at 1 µM

# BINDER, OBS_VALUE
data = [
    ("VHSEGTFTSD[αMeBip(OMe)][hhPhe] (not fully specified (C-terminus); printed as VHSEGTFTSD-(αMe-Bip(OMe))-(APPA)) [Seq. ID. No. 11]", "96 % of control"),
    ("VH[Aib]QGTFTS[αMeD][αMeBip(OMe)][hhPhe]-NH2 [Seq. ID. No. 59]", "96 % of control"),
    ("VH[Aib]EGT[αMePhe(2,6-F2)]TSD[Bip(2'-Et-4'-OMe)][αMeAPPA] (not fully specified (C-terminus); printed as VH-Aib-EGT-(αMe-2,6-diFPhe)-TSD-Bip(OMe)-(αMe-APPA); reading uncertain) [Seq. ID. No. 105]", "99 % of control"),
    ("VH[Aib]QGTFTSD[αMeBip(OMe)][hhPhe]-NH2 [Seq. ID. No. 7]", "99 % of control"),
    ("VH[Ac3c]EGTFTSD[αMeBip(OMe)][hhPhe] (not fully specified (C-terminus)) [Seq. ID. No. 16]", "99 % of control"),
    ("VH[Aib]EGTFTSD[Bip(2'-Et-4'-OMe)][αMeAPPA] (not fully specified (C-terminus); printed as VH-Aib-EGTFTSD-Bip(OMe)-(αMe-APPA); reading uncertain) [Seq. ID. No. 89]", "99 % of control"),
    ("VH[Aib]EGT[αMePhe(2,6-F2)]TS[αMeD][αMeBip(OMe)][hhPhe] (not fully specified (C-terminus)) [Seq. ID. No. 79]", "99 % of control"),
    ("VVHAEGT[αMePhe(2-F)]TSD[αMeBip(OMe)][hhPhe]-NH2 [Seq. ID. No. 218]", "96 % of control"),
    ("VHAEGTFTSD[αMeBip(OMe)][hhPhe] (not fully specified (C-terminus); printed as VHAEGTFTSD-(αMe-Bip(OMe))-(APPA)) [Seq. ID. No. 12]", "99 % of control"),
]
